System: NCI-H226
Assay: NCI tumour cell line growth inhibition, 48 h
Activity calls are given as the source filed them. Rule as the data show it: active = GI50 up to about 1.1 µM and inactive = higher.
The reply should be one of these categories: active, inactive

Look over these answered cases.
>  <compound>
O=C1CCCC(=O)N1CCc1c[nH]c2ccccc12

>  <classification>
inactive

$$$$
>  <compound>
COC(=O)C/N=C1\NC(=S)N(Cc2ccc(OC)cc2)C12CCCC2

>  <classification>
inactive

$$$$

Q: Recorded call for O=c1c(-c2ccc(O)cc2)coc2cc(O)cc(O)c12 ?
A: inactive

Q: Would you kindly repeat that for COc1ccc(NC(=O)CC(=O)N2N=C(c3ccccc3)C(/N=N/c3ccc(S(=O)(=O)CCOS(=O)(=O)O)cc3)C2=O)cc1 (centres undefined) ?
A: inactive

Q: Field entry: O=C(CSc1nnc(Cc2ccccc2)o1)Nc1cccc(Cl)c1
A: inactive

Q: Now this one: O=c1c2cc(Br)cc(Br)c2[nH]c(=S)n1-c1ccc(/N=N/c2ccc(O)c3cccnc23)cc1
A: inactive

Q: # iterate: CC(C)CC(Nc1c(O)ccc2ccccc12)C(=O)O (centres undefined)
A: inactive

Q: Do the same for CN(C)c1ccc(/C=C2\C[C@H]3[C@@H]4CC=C5C[C@@H](N6CCCC6)CC[C@]5(C)[C@H]4CC[C@]3(C)[C@H]2O)cc1 please
A: active

Q: Likewise for Cc1c2cnccc2c(C)c2c1c1ccccc1n2CCOC(=O)c1ccccc1 ?
A: inactive

Measured values drawn from ChEMBL document CHEMBL1201862 for this set.
